Data provenance is paper PMC2891058.

target: S. typhimurium QAPRTase (quinolinate phosphoribosyltransferase) (Salmonella enterica, UniProt P30012, E215Q); assay: biochemical
Reported endpoint: Kd (µM)

> print(dat)
                         compound.structure  unit  readout.value
1  O=P(O)(O)OC[C@H]1O[C@H](OP(=O)(O)OP(=O)(O)O)[C@H](O)[C@@H]1O    µM            113
